Values were extracted from paper PMC3817407.

TARGET ENTITY: T1, ECF02_915
T1 chain: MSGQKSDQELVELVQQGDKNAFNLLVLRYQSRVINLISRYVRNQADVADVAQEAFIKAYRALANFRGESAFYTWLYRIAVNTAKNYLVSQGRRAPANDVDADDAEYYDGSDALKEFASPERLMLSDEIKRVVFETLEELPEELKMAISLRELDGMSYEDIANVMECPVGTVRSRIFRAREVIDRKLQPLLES
Property: fold repression; scope: individual binders

Below, each entry is followed by its recorded fold repression result.
AS22_1147 (protein) MELDDIAVAWRSLEQRLDQHAALAGQVLGDLRSHAARAHLRPLWLSQSAQLLCAIALSGLVAHSWLAFPEQAAAIVGGVLLQIWCVALAASAARQLWLLSQLDFARPLLQTQRALAQLRRWRTRVAPWLGVAFWVLWVAVADAAWRALTGRSLPYAWLLCNLLVGVLGGIGTWLGYRRLQRSGHPWLERLDTVHAGRSVARTETLLEQIARFQRE = 3.59
AS33_375 (protein) MMALSKKMLEQEPSEIELLLPWHAAGTLNARDARRVEDALARDPELAKQYAAIRGEYEETIHLNESLGAPSARAMQKLFGAIDAEPARETGSLPLSARIATFFASLSPRTLAWSASLGAVALVLQAGIIGAVLMKTQPTTFQTASLSTSAPITRELGAAVAPARALVRFTPEARVADITALLDSYQASIIGDAKGGMFRLQFDKAMSQDELASLLGRMQREKFVNLAVAAP = 4.71

Let's switch to this binder now.
For record AS14_1324 (protein) MSGSRPEPEGHLAEQHLGDRLSALVDGELGHDARERVLAHVATCPKCKAEVDAQRRLKNVFAEAAPPAPSESFLARLQGLPGGGDSDGGGSPFSGLPGGFGASAASGVFGPRRDERFEFDYVPAGSHTPVLPSATSGRGFRIHEVGRHESDRSASRGLRFAFAAAGAVSLAAIALGGVTLGTPDTTTEARGSGSGSNVTPLRTPGSAAATGSESQRRRTAGPLLGQGQRALGDLPVASTTASAPLLPGMPAPAGGDARQQAVRALTTPVTAGAAAMSPLIRPLEAVPPLSLSSWSAAPEVRPPGLLAAPDPAPSPYPAASPAASSSPLR the listed fold repression is 2.86
